The reported measurements were obtained from ChEMBL document CHEMBL1126171.

I'd be grateful if you could share measured relative binding affinity (RBA) for these entries.
# tgt: Anti-estrogen binding site (AEBS) (Homo sapiens) (UniProt Q15125+Q9UBM7)
# assay_method_text: Relative binding affinity (RBA) against AEBS (Antiestrogen binding site) in rat liver
# Assay type: functional, tissue-based
# condition_summary: target entry is the homologue from another species
Numbers only.

Recorded relative binding affinity (RBA), per entry:
smiles_entry=CCN(CC)CCOc1ccc(Cc2ccccc2)cc1 tgt="Anti-estrogen binding site (AEBS) (Homo sapiens) (UniProt Q15125+Q9UBM7)" readout_name="relative binding affinity (RBA)" reported_result=0.06
smiles_entry=CCCC(C(=O)OCCN(CC)CC)(c1ccccc1)c1ccccc1 tgt="Anti-estrogen binding site (AEBS) (Homo sapiens) (UniProt Q15125+Q9UBM7)" readout_name="relative binding affinity (RBA)" reported_result=12
smiles_entry=CCN(CC)CCOC(=O)C(CC(C)C)(c1ccccc1)c1ccccc1 tgt="Anti-estrogen binding site (AEBS) (Homo sapiens) (UniProt Q15125+Q9UBM7)" readout_name="relative binding affinity (RBA)" reported_result=5
smiles_entry=CC/C(=C(\c1ccccc1)c1ccc(OCCN(CC)CC)cc1)c1ccccc1 tgt="Anti-estrogen binding site (AEBS) (Homo sapiens) (UniProt Q15125+Q9UBM7)" readout_name="relative binding affinity (RBA)" reported_result=21

Kindly review the next compound as well.
Input: Find the recorded relative binding affinity (RBA) belonging to C=CC(C(=O)OCCN(CC)CC)(c1ccccc1)c1ccccc1 and report it.
Output: 10

---

# Test system: MCF7S
# assay_method_text: Inhibition of [3H]thymidine incorporation into MCF-7 cells
# Type: functional, cell-based
# condition_summary: Homo sapiens
readout_name: IC50
Field: value (include unit after the number)

Input: Find the recorded IC50 belonging to COc1ccc2c(-c3ccc(OCCN4CCCC4)cc3)c(Cc3ccc(Cl)cc3)oc2c1.Cl and report it.
Output: 2300 nM

---

# tgt: Anti-estrogen binding site (AEBS) (Homo sapiens) (UniProt Q15125+Q9UBM7)
# assay_method_text: Relative binding affinity(RBA) against AEBS (Antiestrogen binding site) in rat liver
# Assay type: functional, tissue-based
# condition_summary: target entry is the homologue from another species
I'd be grateful if you could share measured relative binding affinity (RBA) for these entries.
Answers are plain numbers.

Recorded relative binding affinity (RBA), per entry:
compound=COc1ccc2c(c1)OC(C)(C)[C@H](c1ccccc1)[C@H]2c1ccc(OCCN2CCCC2)cc1 tgt="Anti-estrogen binding site (AEBS) (Homo sapiens) (UniProt Q15125+Q9UBM7)" reported_result=19
compound=Oc1cccc(C(=C2CCCCC2)c2cccc(OCCN3CCOCC3)c2)c1 tgt="Anti-estrogen binding site (AEBS) (Homo sapiens) (UniProt Q15125+Q9UBM7)" reported_result=25
compound=CC/C(=C(\c1ccccc1)c1ccc(OCCN2CCCC2)cc1)c1ccccc1 tgt="Anti-estrogen binding site (AEBS) (Homo sapiens) (UniProt Q15125+Q9UBM7)" reported_result=434
compound=CC/C(=C(\c1ccccc1)c1ccc(OCCN2CCN(C)CC2)cc1)c1ccccc1 tgt="Anti-estrogen binding site (AEBS) (Homo sapiens) (UniProt Q15125+Q9UBM7)" reported_result=540
compound="C1=C(c2ccccc2)C(c2ccc(OCCN3CCCCC3)cc2)Oc2ccccc21 (centres undefined)" tgt="Anti-estrogen binding site (AEBS) (Homo sapiens) (UniProt Q15125+Q9UBM7)" reported_result=225
compound=COc1ccc2c(c1)CCC(c1ccccc1)=C2c1ccc(OCCN2CCCC2)cc1 tgt="Anti-estrogen binding site (AEBS) (Homo sapiens) (UniProt Q15125+Q9UBM7)" reported_result=90
compound="C1=C(c2ccccc2)C(c2ccc(OCCN3CCCC3)cc2)Oc2ccccc21 (centres undefined)" tgt="Anti-estrogen binding site (AEBS) (Homo sapiens) (UniProt Q15125+Q9UBM7)" reported_result=134
compound=COc1ccc2c(c1)OC(C)(C)[C@@H](c1ccccc1)[C@H]2c1ccc(OCCN2CCCC2)cc1 tgt="Anti-estrogen binding site (AEBS) (Homo sapiens) (UniProt Q15125+Q9UBM7)" reported_result=46

Input: Find the recorded relative binding affinity (RBA) belonging to Oc1cccc(C(=C2CCCCC2)c2cccc(OCCN3CCCCC3)c2)c1 and report it.
Output: 10
